Task for the reader: assign each of the following binders its reported Selectivity v. Coll-3.
Biological target: T1, human Gelatinase-A (human, UniProt P08253 110-660, limits assumed)
T1 sequence (looked up): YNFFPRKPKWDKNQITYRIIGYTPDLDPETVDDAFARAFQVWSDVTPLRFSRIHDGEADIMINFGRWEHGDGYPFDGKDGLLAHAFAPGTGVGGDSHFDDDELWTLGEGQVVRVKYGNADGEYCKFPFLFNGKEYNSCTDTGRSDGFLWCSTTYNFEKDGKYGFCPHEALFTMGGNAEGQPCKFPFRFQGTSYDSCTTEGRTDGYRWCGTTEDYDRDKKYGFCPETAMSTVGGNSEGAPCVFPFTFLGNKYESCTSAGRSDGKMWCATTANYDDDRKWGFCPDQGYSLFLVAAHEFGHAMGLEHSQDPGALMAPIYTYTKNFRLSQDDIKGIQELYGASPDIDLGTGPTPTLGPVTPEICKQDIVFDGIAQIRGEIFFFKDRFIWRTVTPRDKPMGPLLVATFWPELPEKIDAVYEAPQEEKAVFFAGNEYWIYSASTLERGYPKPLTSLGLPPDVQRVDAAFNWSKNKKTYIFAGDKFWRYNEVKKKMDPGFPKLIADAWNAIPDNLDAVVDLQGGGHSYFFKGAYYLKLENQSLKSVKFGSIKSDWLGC
Test: cell-based or functional assay
*1 amine or outer side, *2 acyl side, *3 side chain or, on linkers, in order; H or OH if unused. [ ]: non-standard residue; d: D form. The star is where a group is joined. Dnp = O=[N+]([O-])c1ccc(*)c([N+](=O)[O-])c1; C(Me) = CSC[C@H](N[*:1])C(=O)[*:2]
# include the unit after the value

Known results for binders:
Dnp-PSGIHL-NH2 (SMILES CC[C@H](C)[C@H](NC(=O)CNC(=O)[C@H](CO)NC(=O)[C@@H]1CCCN1c1ccc([N+](=O)[O-])cc1[N+](=O)[O-])C(=O)N[C@@H](Cc1c[nH]cn1)C(=O)N[C@@H](CC(C)C)C(N)=O) [Dnp-PSGIHL-NH2]: 2 unitless
Dnp-GPMSYNG-NH2 (SMILES CSCC[C@H](NC(=O)[C@@H]1CCCN1C(=O)CNc1ccc([N+](=O)[O-])cc1[N+](=O)[O-])C(=O)N[C@@H](CO)C(=O)N[C@@H](Cc1ccc(O)cc1)C(=O)N[C@@H](CC(N)=O)C(=O)NCC(N)=O) [Dnp-GPMSYNG-NH2]: 5 unitless

Then there is this binder:
Prompt: Recorded Selectivity v. Coll-3 of Dnp-GPAPFRV[C(Me)]-NH2 (SMILES CSC[C@H](NC(=O)[C@@H](NC(=O)[C@H](CCCNC(=N)N)NC(=O)[C@H](Cc1ccccc1)NC(=O)[C@@H]1CCCN1C(=O)[C@H](C)NC(=O)[C@@H]1CCCN1C(=O)CNc1ccc([N+](=O)[O-])cc1[N+](=O)[O-])C(C)C)C(N)=O) [Dnp-GPAPFRVC(Me)-NH2] , please.
Completion: 37 unitless
